# Assay target: Glucose-dependent insulinotropic receptor (Homo sapiens)
# Procedure details: Agonist activity at human GPR119 expressed in HEK293 cells assessed as cAMP accumulation after 30 mins by fluorescence analysis
# Type: functional, cell-based
Short version: %max at least 80% is satisfied, less is not satisfied.

Answered cases to consult:
1) Cc1c(Nc2ccc(C#N)cc2Cl)ncnc1OC1C2COCC1CN(C(=O)OC(C)(C)C)C2 (stereo in doubt; 20) | satisfied
2) COc1c(Nc2ccc(C#N)cc2Cl)ncnc1OC1C2COCC1CN(C(=O)OC1(C)CC1)C2 (stereo unspecified) | satisfied
3) COc1c(Nc2ccc(C#N)cc2F)ncnc1OC1C2COCC1CN(C(=O)OC1(C)CC1)C2 (stereo unspecified) | satisfied
4) CC1(OC(=O)N2CC3COCC(C2)C3Oc2cc(Nc3ccc(C#N)cc3Cl)ncn2)CC1 (stereo unspecified) | satisfied
5) Cc1c(Nc2ccc(C#N)cc2Cl)ncnc1OC1CC2COCC(C1)N2C(=O)OC(C)(C)C (stereo in doubt; 14) | not satisfied

-- ask Identify whether the reported %max of the following compound is 80% or greater: Cc1c(Nc2ccc(C#N)cc2Cl)ncnc1OC1CC2COCC(C1)N2S(=O)(=O)C1CC1 (stereo unspecified)
-- reply not satisfied

-- ask Identify whether the reported %max of the following compound is 80% or greater: Cc1c(Nc2ccc(C#N)cc2Cl)ncnc1OC1CC2COCC(C1)N2C(=O)OC(C)(C)C (stereo in doubt; 15)
-- reply not satisfied

-- ask Identify whether the reported %max of the following compound is 80% or greater: Cc1c(Nc2ccc(C#N)cc2Cl)ncnc1OC1C2COCC1CN(C(=O)OC1(C)CC1)C2 (stereo unspecified)
-- reply not satisfied

-- ask Identify whether the reported %max of the following compound is 80% or greater: Cc1c(Nc2ccc(C#N)cc2Cl)ncnc1OC1C2COCC1CN(C(=O)OC(C)(C)C)C2 (stereo in doubt; 19)
-- reply not satisfied

The values you see were collected from ChEMBL document CHEMBL3627686.
